System: FD (familial dysautomonia) IKBKAP minigene, exon 20 inclusion, in HEK293T cells
Assay: Primary splicing assay (FD IKBKAP minigene, Firefly/Renilla luciferase reporter in HEK293T)
Format: cell-based, human
Conditions: Homo sapiens, HEK-293T; max efficacy in Primary Assay; Firefly/Renilla ratio, kinetin and DMSO as positive and negative controls; 24 hours of treatment; read-out: Emax (%)
Procedure: As used herein, the expression “ECk” refers to the compound concentration at which the maximum kinetin efficacy (200 μM) is reached. […]
Measurement kind: Emax (%)
Give bare numbers, in %.

Completed entries (count: 3):
{"Compound": "Clc1nc(NCc2nccs2)c2nc(OCc3nccs3)[nH]c2n1 [(329)]", "Emax [%]": 209}
{"Compound": "Ic1nc(NCc2ccco2)c2nc[nH]c2n1 [(264)]", "Emax [%]": 44}
{"Compound": "c1coc(CNc2nc(C3CC3)nc3[nH]cnc23)c1 [(65)]", "Emax [%]": 32}

Please look at the items below and tell me Emax for each one, in order.
1. O=C(c1cc2c(NCc3ccco3)nc(Cl)nc2[nH]1)N1CCCC1 [(190)]
2. Clc1nc(NCc2ccco2)c2nc(Cc3ccncc3)[nH]c2n1 [(99)]
3. COc1nc2c(NCc3nccs3)nc(Cl)nc2[nH]1 [(230)]
4. CC(C)Oc1nc2c(NCc3ccncc3)nc(Cl)nc2[nH]1 [(277)]
5. O=C1CCCN1CCOc1nc2c(NCc3nccs3)nc(Cl)nc2[nH]1 [(402)]
6. CCCCOc1nc2c(NCc3ccco3)nc(Cl)nc2[nH]1 [(311)]

Result block:
1. 68
2. 47
3. 216
4. 197
5. 21
6. 221

Query block: Quick one: Emax of CC(C)(C)OCCOc1nc2c(NCc3nccs3)nc(Cl)nc2[nH]1 [(482)] ?
Result block: 99.1
